Target: SMARCA2 (Homo sapiens)
Sequence (P51531 whole entry): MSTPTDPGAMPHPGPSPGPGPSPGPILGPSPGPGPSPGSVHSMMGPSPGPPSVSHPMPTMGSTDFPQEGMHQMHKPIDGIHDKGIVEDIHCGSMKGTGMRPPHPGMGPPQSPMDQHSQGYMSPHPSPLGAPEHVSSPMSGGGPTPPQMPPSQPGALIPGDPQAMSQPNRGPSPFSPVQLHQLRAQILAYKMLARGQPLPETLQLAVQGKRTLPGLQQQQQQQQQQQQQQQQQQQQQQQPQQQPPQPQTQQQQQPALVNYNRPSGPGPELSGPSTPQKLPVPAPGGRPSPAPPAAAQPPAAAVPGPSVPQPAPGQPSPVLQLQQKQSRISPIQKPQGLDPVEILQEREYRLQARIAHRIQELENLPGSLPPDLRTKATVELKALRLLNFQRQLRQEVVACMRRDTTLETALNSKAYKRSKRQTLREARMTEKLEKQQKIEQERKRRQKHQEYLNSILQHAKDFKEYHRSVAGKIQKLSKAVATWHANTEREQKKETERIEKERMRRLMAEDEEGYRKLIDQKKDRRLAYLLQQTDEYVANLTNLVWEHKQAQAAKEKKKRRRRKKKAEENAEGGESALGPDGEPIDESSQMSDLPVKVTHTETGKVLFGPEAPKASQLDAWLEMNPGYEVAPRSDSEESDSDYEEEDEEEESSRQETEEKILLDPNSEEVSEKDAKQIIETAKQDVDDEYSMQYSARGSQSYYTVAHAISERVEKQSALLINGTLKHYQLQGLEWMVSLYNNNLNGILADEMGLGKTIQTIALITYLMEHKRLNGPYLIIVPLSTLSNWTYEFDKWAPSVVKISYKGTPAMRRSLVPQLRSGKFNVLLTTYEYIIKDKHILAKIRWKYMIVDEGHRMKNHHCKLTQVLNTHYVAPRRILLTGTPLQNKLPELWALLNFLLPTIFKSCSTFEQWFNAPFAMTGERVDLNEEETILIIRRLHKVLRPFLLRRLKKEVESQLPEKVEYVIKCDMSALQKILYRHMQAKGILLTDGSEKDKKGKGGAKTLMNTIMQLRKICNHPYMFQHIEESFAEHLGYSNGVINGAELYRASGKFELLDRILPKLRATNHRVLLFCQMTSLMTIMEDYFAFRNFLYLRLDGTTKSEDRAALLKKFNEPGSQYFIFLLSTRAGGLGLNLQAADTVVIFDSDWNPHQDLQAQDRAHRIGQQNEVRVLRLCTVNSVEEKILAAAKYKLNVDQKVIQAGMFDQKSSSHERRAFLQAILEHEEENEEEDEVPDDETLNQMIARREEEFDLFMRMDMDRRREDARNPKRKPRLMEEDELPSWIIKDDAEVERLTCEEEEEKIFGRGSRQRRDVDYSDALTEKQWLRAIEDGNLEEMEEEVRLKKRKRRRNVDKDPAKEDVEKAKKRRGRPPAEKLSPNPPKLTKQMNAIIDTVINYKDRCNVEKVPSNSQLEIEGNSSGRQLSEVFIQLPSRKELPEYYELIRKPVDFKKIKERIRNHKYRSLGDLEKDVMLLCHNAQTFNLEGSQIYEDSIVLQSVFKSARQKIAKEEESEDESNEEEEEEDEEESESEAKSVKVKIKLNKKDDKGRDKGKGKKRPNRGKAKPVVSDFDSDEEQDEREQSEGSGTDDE
Test: HiBit assay in engineered HT1080 CRISPR knock-in cell, 6 hrs (B series), SMARCA2
Type: cell-based
Conditions: HT-1080, HT1080 CRISPR knock-in cells, 6 hrs incubation; read-out: SMARC A2 HT1080 HiBit Dmax (%)
Kindly supply the reported Dmax values for the records listed here.

Measured Dmax for this entry C[C@H](NC(=O)[C@@H]1C[C@@H](O)CN1C(=O)[C@@H](n1cc(C2CCC(CN3CCN(c4ccc5c(c4)-n4c(nc(=O)c6c(Cl)cccc64)C54CCCCC4)CC3)CC2)nn1)C(C)(C)C)c1ccc(-c2scnc2C#CCN2CCOCC2)cc1 (some centres unmarked) on SMARCA2 (Homo sapiens): > 90%

Measured Dmax for this entry Cc1ncoc1-c1ccc([C@H](C)NC(=O)[C@@H]2C[C@@H](O)CN2C(=O)[C@@H](n2cc([C@H]3CC[C@H](CN4CCN(c5ccc6c(c5)-n5c(nc(=O)c7c(Cl)cccc75)C6(C)C)CC4)CC3)nn2)C(C)(C)C)cc1 on SMARCA2 (Homo sapiens): > 90%

----------
Biological target: SMARCA4 (Homo sapiens, UniProt P51532)
Sequence (P51532 whole entry): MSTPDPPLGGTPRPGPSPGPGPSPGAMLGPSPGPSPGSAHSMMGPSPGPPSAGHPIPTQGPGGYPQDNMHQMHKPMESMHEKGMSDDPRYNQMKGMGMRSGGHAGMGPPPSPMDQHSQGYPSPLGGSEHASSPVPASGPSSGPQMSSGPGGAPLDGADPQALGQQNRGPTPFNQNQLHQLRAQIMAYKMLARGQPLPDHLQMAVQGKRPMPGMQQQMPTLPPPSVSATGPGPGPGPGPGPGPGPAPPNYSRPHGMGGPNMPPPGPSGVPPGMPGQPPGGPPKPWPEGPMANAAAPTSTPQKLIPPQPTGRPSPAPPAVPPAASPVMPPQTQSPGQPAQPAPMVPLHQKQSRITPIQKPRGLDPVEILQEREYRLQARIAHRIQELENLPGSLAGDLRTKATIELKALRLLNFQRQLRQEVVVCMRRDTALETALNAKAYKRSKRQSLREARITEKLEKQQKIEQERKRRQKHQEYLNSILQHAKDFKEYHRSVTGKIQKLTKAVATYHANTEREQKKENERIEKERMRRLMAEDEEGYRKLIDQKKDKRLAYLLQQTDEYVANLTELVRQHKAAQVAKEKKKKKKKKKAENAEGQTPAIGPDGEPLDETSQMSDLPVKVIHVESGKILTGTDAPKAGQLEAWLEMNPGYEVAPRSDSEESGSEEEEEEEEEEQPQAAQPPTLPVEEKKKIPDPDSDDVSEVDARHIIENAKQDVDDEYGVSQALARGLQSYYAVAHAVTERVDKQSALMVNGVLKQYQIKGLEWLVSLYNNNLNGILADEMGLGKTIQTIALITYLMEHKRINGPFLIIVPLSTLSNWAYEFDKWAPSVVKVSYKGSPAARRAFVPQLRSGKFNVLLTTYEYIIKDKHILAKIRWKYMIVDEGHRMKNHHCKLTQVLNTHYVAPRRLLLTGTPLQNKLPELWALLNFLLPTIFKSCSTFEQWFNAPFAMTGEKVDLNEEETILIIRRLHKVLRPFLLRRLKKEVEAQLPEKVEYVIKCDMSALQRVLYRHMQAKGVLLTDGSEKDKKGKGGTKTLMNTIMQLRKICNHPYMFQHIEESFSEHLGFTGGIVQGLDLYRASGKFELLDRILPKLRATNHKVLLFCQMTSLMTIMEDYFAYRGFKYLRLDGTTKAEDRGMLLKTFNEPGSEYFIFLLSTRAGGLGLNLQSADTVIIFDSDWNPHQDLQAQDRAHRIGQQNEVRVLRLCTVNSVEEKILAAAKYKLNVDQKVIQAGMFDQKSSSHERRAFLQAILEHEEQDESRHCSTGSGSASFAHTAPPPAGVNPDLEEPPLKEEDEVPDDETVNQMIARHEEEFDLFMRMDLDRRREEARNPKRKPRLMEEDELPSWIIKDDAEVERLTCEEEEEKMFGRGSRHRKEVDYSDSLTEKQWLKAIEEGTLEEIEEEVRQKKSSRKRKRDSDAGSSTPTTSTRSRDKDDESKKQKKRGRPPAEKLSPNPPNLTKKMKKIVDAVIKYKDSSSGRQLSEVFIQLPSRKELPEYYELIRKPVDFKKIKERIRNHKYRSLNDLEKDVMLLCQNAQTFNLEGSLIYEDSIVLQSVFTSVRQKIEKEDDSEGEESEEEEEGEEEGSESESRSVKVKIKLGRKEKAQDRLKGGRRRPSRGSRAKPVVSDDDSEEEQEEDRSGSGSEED
Experiment: HiBit assay in engineered HT1080 CRISPR knock-in cell, 6 hrs (B series), SMARCA4
Type: cell-based
Conditions: HT1080 CRISPR knock-in cells, 6 hrs incubation; read-out: SMARC A4 HT1080 HiBit DC50
REPORTED PROPERTY: DC50

Measured DC50 for this entry C[C@H](NC(=O)[C@@H]1C[C@@H](O)CN1C(=O)[C@@H](n1cc(C2CCC(CN3CCN(c4ccc5c(c4)-n4c(nc(=O)c6c(Cl)cccc64)C54CCCCC4)CC3)CC2)nn1)C(C)(C)C)c1ccc(-c2scnc2C#CCN2CCOCC2)cc1 (some centres unmarked) on SMARCA4 (Homo sapiens, UniProt P51532): < 100 nM

Measured DC50 for this entry Cc1ncsc1-c1ccc([C@H](C)NC(=O)[C@@H]2C[C@@H](O)CN2C(=O)[C@@H](NC(=O)C23CCC(CN4CCC(c5ccc6c(c5)-n5c(nc(=O)c7c(Cl)cccc75)C6(C)C)CC4)(CC2)C3)C(C)(C)C)cc1 on SMARCA4 (Homo sapiens, UniProt P51532): 100 to 500 nM

Measured DC50 for this entry Cc1ncsc1-c1ccc(CNC(=O)[C@@H]2C[C@@H](O)CN2C(=O)[C@@H](NC(=O)C2(F)CC2)C(C)(C)C)c(OCCN2CCC(c3ccc4c(c3)-n3c(nc(=O)c5c(Cl)cccc53)C4(C)C)CC2)c1 on SMARCA4 (Homo sapiens, UniProt P51532): < 100 nM

Measured DC50 for this entry Cc1ncsc1-c1ccc([C@H](C)NC(=O)[C@@H]2C[C@@H](O)CN2C(=O)[C@@H](NC(=O)[C@H]2CC[C@H](CN3CCC(c4ccc5c(c4)-n4c(nc(=O)c6c(Br)cccc64)C5(C)C)CC3)CC2)C(C)(C)C)cc1 on SMARCA4 (Homo sapiens, UniProt P51532): < 100 nM

Measured DC50 for this entry Cc1ncsc1-c1ccc([C@H](C)NC(=O)[C@@H]2C[C@@H](O)CN2C(=O)[C@H](C(C)C)n2cc(CCCN3CCC(c4ccc5c(c4)-n4c(nc(=O)c6c(Cl)cccc64)C5(C)C)CC3)nn2)cc1 on SMARCA4 (Homo sapiens, UniProt P51532): < 100 nM

Measured DC50 for this entry Cc1ncsc1-c1ccc([C@H](C)NC(=O)[C@@H]2C[C@@H](O)CN2C(=O)[C@H](C(C)C)n2cc(C3CCC(c4cccc5c4C(C)(C)c4nc(=O)c6c(Cl)cccc6n4-5)CC3)nn2)cc1 (some centres unmarked) [Compound B161] on SMARCA4 (Homo sapiens, UniProt P51532): < 100 nM

Measured DC50 for this entry Cc1ncsc1-c1ccc([C@H](CCCCCn2cc(-c3ccc4c(c3)-n3c(nc(=O)c5c(Cl)cccc53)C4(C)C)cn2)NC(=O)[C@@H]2C[C@@H](O)CN2C(=O)[C@@H](NC(=O)C2(F)CC2)C(C)(C)C)cc1 on SMARCA4 (Homo sapiens, UniProt P51532): < 100 nM

Measured DC50 for this entry Cc1ncsc1-c1ccc([C@H](C)NC(=O)[C@@H]2C[C@@H](O)CN2C(=O)C(c2cc(OCCCCn3cc(-c4ccc5c(c4)C(C)(C)c4nc(=O)c6c(Cl)cccc6n4-5)cn3)no2)C(C)C)cc1 (some centres unmarked) on SMARCA4 (Homo sapiens, UniProt P51532): > 1000 nM

Measured DC50 for this entry Cc1ncsc1-c1ccc([C@H](CC(=O)NCCCCN2CCC(c3ccc4c(c3)-n3c(nc(=O)c5c(Cl)cccc53)C4(C)C)CC2)NC(=O)[C@@H]2C[C@@H](O)CN2C(=O)[C@@H](NC(=O)C2(F)CC2)C(C)(C)C)cc1 on SMARCA4 (Homo sapiens, UniProt P51532): > 1000 nM

Measured DC50 for this entry Cc1ncsc1-c1ccc([C@H](C)NC(=O)[C@@H]2C[C@@H](O)CN2C(=O)[C@@H](NC(=O)c2cccc(CN3CCC(c4ccc5c(c4)C(C)(C)c4nc(=O)c6c(Cl)cccc6n4-5)CC3)c2)C(C)(C)C)cc1 on SMARCA4 (Homo sapiens, UniProt P51532): < 100 nM

Measured DC50 for this entry Cc1ncsc1-c1ccc([C@H](C)NC(=O)[C@@H]2C[C@@H](O)CN2C(=O)[C@@H](NC(=O)CCCCn2cc(-c3ccc4c(c3)C(C)(C)c3nc(=O)c5c(Cl)cccc5n3-4)cn2)C(C)(C)C)cc1 on SMARCA4 (Homo sapiens, UniProt P51532): > 1000 nM

Measured DC50 for this entry Cc1ncsc1-c1ccc([C@H](CC(=O)NCCCN2CCC(c3ccc4c(c3)-n3c(nc(=O)c5c(Cl)cccc53)C4(C)C)CC2)NC(=O)[C@@H]2C[C@@H](O)CN2C(=O)[C@@H](NC(=O)C2(F)CC2)C(C)(C)C)cc1 on SMARCA4 (Homo sapiens, UniProt P51532): 100 to 500 nM

Measured DC50 for this entry Cc1cc(C(C(=O)N2C[C@H](O)C[C@H]2C(=O)N[C@@H](C)c2ccc(-c3scnc3C#CCOCCCN3CCC(c4cccc5c4C(C)(C)c4nc(=O)c6c(Cl)cccc6n4-5)CC3)cc2)C(C)C)on1 (some centres unmarked) on SMARCA4 (Homo sapiens, UniProt P51532): 100 to 500 nM

Measured DC50 for this entry Cc1ncsc1-c1ccc2c(c1)CC[C@H]2NC(=O)[C@@H]1C[C@@H](O)CN1C(=O)[C@@H](n1cc([C@H]2CC[C@H](CN3CCC(c4ccc5c(c4)-n4c(nc(=O)c6c(Cl)cccc64)C5(C)C)CC3)CC2)nn1)C(C)(C)C on SMARCA4 (Homo sapiens, UniProt P51532): 100 to 500 nM

Measured DC50 for this entry Cc1cc(C(C(=O)N2C[C@H](O)C[C@H]2C(=O)N[C@@H](C)c2ccc(-c3scnc3C#CCN3CCC(c4cccc5c4C(C)(C)c4nc(=O)c6c(Cl)cccc6n4-5)CC3)cc2)C(C)C)on1 (some centres unmarked) on SMARCA4 (Homo sapiens, UniProt P51532): 100 to 500 nM

Measured DC50 for this entry Cc1nc(C)c(-c2ccc([C@H](C)NC(=O)[C@@H]3C[C@@H](O)CN3C(=O)[C@@H](n3cc([C@H]4CC[C@H](CN5CCC(c6ccc7c(c6)-n6c(nc(=O)c8c(Cl)cccc86)C7(C)C)CC5)CC4)nn3)C(C)(C)C)cc2)s1 on SMARCA4 (Homo sapiens, UniProt P51532): < 100 nM

Measured DC50 for this entry Cc1ncsc1-c1ccc([C@H](C)NC(=O)[C@@H]2C[C@@H](O)CN2C(=O)[C@@H](c2cc(OCCCN3CCC(c4ccc5c(c4)-n4c(nc(=O)c6c(Cl)cccc64)C5(C)C)CC3)no2)C(C)C)cc1 on SMARCA4 (Homo sapiens, UniProt P51532): < 100 nM
